test description: In vivo PK and oral bioavailability, single dose
test settings: mouse, plasma; wild-type mice, 10 mg/kg single dose
endpoint label: AUC

CC1CN(S(=O)(=O)c2ccc(NC(=O)c3ccc(Br)c(I)c3)cc2)CCN1 (centres unmarked)	1300 ng·h/mL

Now for another entry.
**Q:** // query AUC value for entry COc1ccc(C(=O)Nc2ccc(S(=O)(=O)N3CCCCC3C)cc2)cc1I (centres unmarked)
**A:** 224 ng·h/mL

---

test description: In vivo PK and oral bioavailability, single dose
test settings: mouse, plasma, po; wild-type mice, 10 mg/kg single dose
endpoint label: bioavailability (%)
The answer is to be given in %; state only the numeric part.

COc1ccc(C(=O)Nc2ccc(S(=O)(=O)N3CCCCC3C)cc2)cc1I (centres unmarked) [Remodilin 39]	4

Now for another entry.
**Q:** // query bioavailability value for entry CC1CN(S(=O)(=O)c2ccc(NC(=O)c3ccc(Br)c(I)c3)cc2)CCN1 (centres unmarked) [Remodilin 83]
**A:** 22

---

test description: Tissue concentrations after 14 d BID dosing (IP or PO)
Type: in vivo
test settings: female, Balb/c, mouse, liver, heart, lung, kidney, intraperitoneal; 40 mg/kg BID IP, 14 days; read-out: levels in liver, heart, lung, and kidney
endpoint label: concentration at 14 days

**Q:** // query concentration at 14 days value for entry CC1CN(S(=O)(=O)c2ccc(NC(=O)c3ccc(Br)c(I)c3)cc2)CCN1 (stereo not shown) [Remodilin 83]
**A:** ~10 µM

---

test description: In vivo PK and oral bioavailability, single dose
test settings: mouse, plasma; wild-type mice, 10 mg/kg single dose
Description: The in vivo bioavailability, plasma half-life, Cmax, and area under the curve (AUC) were determined after administration of single 10 mg/kg doses of remodilins 39 and 83 to mice (Table 1). Selected tissue concentrations of remodilins 39 and 83 after single oral doses of 10 or 50 mg/kg (FIG. 6). The PK properties of these remodilins differ substantially.
endpoint label: Cmax
The number alone won't do; follow it with the unit.

CC1CN(S(=O)(=O)c2ccc(NC(=O)c3ccc(Br)c(I)c3)cc2)CCN1 (centres unmarked) [Remodilin 83]	380 nM

**Q:** // query Cmax value for entry COc1ccc(C(=O)Nc2ccc(S(=O)(=O)N3CCCCC3C)cc2)cc1I (centres unmarked) [Remodilin 39]
**A:** 240 nM
